Data origin: patent US7445765B2

# Test Description: Biodistribution of the 99mTc(N) heterocomplexes in rats (organ uptake, heart accumulation, heart/lung and heart/liver ratios)
# Assay type: in vivo, female Sprague-Dawley rats
# Details: 2 min post injection
Assay Endpoint: Biodistribution in rats: Kidneys (% dose/g)
Numbers only, in % dose/g.

INSERT INTO results (molecule, test_result) VALUES
  ('CCOCCN1CC[P](CCCOC)(CCCOC)[99Tc+]2(#[N])([S]C(N(CCOCC)C(C)C)=[S]2)[P](CCCOC)(CCCOC)CC1 [[^99mTc(N) (PNP5) (ISOET)]^+]', 7.19);

# ---- query molecule ----
INPUT: Quick one: Biodistribution in rats: Kidneys of CCOCCN1CC[P](CCCOC)(CCCOC)[99Tc+]2(#[N])([S]C(N(CCOCC)CCOCC)=[S]2)[P](CCCOC)(CCCOC)CC1 [[^99mTc(N) (PNP5) (DBODC)]^+] ?
OUTPUT: 14.69

###

# Test Description: Biodistribution of the 99mTc(N) heterocomplexes in rats (organ uptake, heart accumulation, heart/lung and heart/liver ratios)
# Type: in vivo, female Sprague-Dawley rats
# Details: rats, 0 min
Cut-off 2 on Heart/liver ratio in biodistribution: below means t, at or above means f.

Reference set (2 entries):
INSERT INTO assay_data (compound, group) VALUES
  ('CCOCCN1CC[P](CCCOC)(CCCOC)[99Tc+]2(#[N])([S]C(N(CCOCC)C(C)C)=[S]2)[P](CCCOC)(CCCOC)CC1 [[^99mTc(N) (PNP5) (ISOET)^+]]', 'f'),
  ('CCOCCN1CC[P](CCCOC)(CCCOC)[99Tc+]2(#[N])([S]C(N(CCOCC)CCOCC)=[S]2)[P](CCCOC)(CCCOC)CC1 [[^99mTc(N) (PNP5) (DBODC)^+]]', 'f');

INPUT: Check if Heart/liver ratio in biodistribution falls below 2 for COCCC[P]1(CCCOC)CCN(CCOC)CC[P](CCCOC)(CCCOC)[99Tc+]12(#[N])[S]C(N(CCOC)CCOC)=[S]2 [[^99m−Tc(N) (PNP3) (DPODC)^+]] .
OUTPUT: t

INPUT: Check if Heart/liver ratio in biodistribution falls below 2 for CCOCCN(CCOCC)C1=[S][99Tc+]2(#[N])([S]1)[P](CCCOC)(CCCOC)CCN(CCOC)CC[P]2(CCCOC)CCCOC [[^99m−Tc(N) (PNP3) (DBODC)^+]] .
OUTPUT: f

INPUT: Check if Heart/liver ratio in biodistribution falls below 2 for CCOCCC[P]1(CCCOCC)CCN(CCOCC)CC[P](CCCOCC)(CCCOCC)[99Tc+]12(#[N])[S]C(N(CCOCC)CCOCC)=[S]2 [[^99mTc(N) (PNP6) (DBODC)^+]] .
OUTPUT: t

###

# Test Description: Biodistribution of the 99mTc(N) heterocomplexes in rats (organ uptake, heart accumulation, heart/lung and heart/liver ratios)
# Type: in vivo, female Sprague-Dawley rats
# Details: 120 min post injection
Assay Endpoint: Biodistribution in rats: Spleen (% ID/g)
Answers are plain numbers, in % ID/g.

INSERT INTO results (molecule, unit_string, test_result) VALUES
  ('CCOCCN(CCOCC)C1=[S][99Tc+]2(#[N])([S]1)[P](CCCOC)(CCCOC)CCN(CCOC)CC[P]2(CCCOC)CCCOC [[^99mTc(N) (PNP3) (DBODC)]^+]', '% ID/g', 0.21);

# ---- query molecule ----
INPUT: Quick one: Biodistribution in rats: Spleen of COCCC[P]1(CCCOC)CCN(CCOC)CC[P](CCCOC)(CCCOC)[99Tc+]12(#[N])[S]C(N(CCOC)CCOC)=[S]2 [[^99mTc(N) (PNP3) (DPODC)]^+] ?
OUTPUT: 0.14

###

# Test Description: Biodistribution of the 99mTc(N) heterocomplexes in rats (organ uptake, heart accumulation, heart/lung and heart/liver ratios)
# Format: in vivo, female Sprague-Dawley rats
# Details: rats, 120 min
Assign Heart/liver ratio in biodistribution to each entry below.
Give bare numbers.

Answered cases to consult:
INSERT INTO measurements (compound, test_result) VALUES
  ('CCOCCN1CC[P](CCCOC)(CCCOC)[99Tc+]2(#[N])([S]C(N(CCOCC)CCOCC)=[S]2)[P](CCCOC)(CCCOC)CC1 [[^99mTc(N) (PNP5) (DBODC)^+]]', 33.1),
  ('CCOCCN(CCOCC)C1=[S][99Tc+]2(#[N])([S]1)[P](CCCOC)(CCCOC)CCN(CCOC)CC[P]2(CCCOC)CCCOC [[^99m−Tc(N) (PNP3) (DBODC)^+]]', 25.01),
  ('CCOCCN1CC[P](CCCOC)(CCCOC)[99Tc+]2(#[N])([S]C(N(CCOCC)C(C)C)=[S]2)[P](CCCOC)(CCCOC)CC1 [[^99mTc(N) (PNP5) (ISOET)^+]]', 10.61);

I'm hoping you can list Heart/liver ratio in biodistribution for every compound here, please.
1. CCOCCC[P]1(CCCOCC)CCN(CCOCC)CC[P](CCCOCC)(CCCOCC)[99Tc+]12(#[N])[S]C(N(CCOCC)CCOCC)=[S]2 [[^99mTc(N) (PNP6) (DBODC)^+]]
2. COCCC[P]1(CCCOC)CCN(CCOC)CC[P](CCCOC)(CCCOC)[99Tc+]12(#[N])[S]C(N(CCOC)CCOC)=[S]2 [[^99m−Tc(N) (PNP3) (DPODC)^+]]

OUTPUT:
1: 0.51; 2: 15.31

###

# Test Description: Biodistribution of the 99mTc(N) heterocomplexes in rats (organ uptake, heart accumulation, heart/lung and heart/liver ratios)
# Format: in vivo, female Sprague-Dawley rats
# Details: 30 min post injection
Assay Endpoint: Biodistribution in rats: Spleen (% ID/g)
Numbers only, in % ID/g.

INSERT INTO assay_data (compound, assay_endpoint, unit_string, test_result) VALUES
  ('CCOCCN(CCOCC)C1=[S][99Tc+]2(#[N])([S]1)[P](CCCOC)(CCCOC)CCN(CCOC)CC[P]2(CCCOC)CCCOC [[^99mTc(N) (PNP3) (DBODC)]^+]', 'Biodistribution in rats: Spleen', '% ID/g', 0.95);

INPUT: Quick one: Biodistribution in rats: Spleen of COCCC[P]1(CCCOC)CCN(CCOC)CC[P](CCCOC)(CCCOC)[99Tc+]12(#[N])[S]C(N(CCOC)CCOC)=[S]2 [[^99mTc(N) (PNP3) (DPODC)]^+] ?
OUTPUT: 0.37

###

# Test Description: Biodistribution of the 99mTc(N) heterocomplexes in rats (organ uptake, heart accumulation, heart/lung and heart/liver ratios)
# Type: in vivo, female Sprague-Dawley rats
# Details: rats, 2 min
Assay Endpoint: Heart accumulation (% ID/g)
Answers are plain numbers, in % ID/g.

INSERT INTO results (molecule, test_result) VALUES
  ('CCOCCN1CC[P](CCCOC)(CCCOC)[99Tc+]2(#[N])([S]C(N(CCOCC)C(C)C)=[S]2)[P](CCCOC)(CCCOC)CC1 [[^99m−Tc(N) (PNP5) (ISOET)^+]]', 2.33),
  ('CCOCCN1CC[P](CCCOC)(CCCOC)[99Tc+]2(#[N])([S]C(N(CCOCC)CCOCC)=[S]2)[P](CCCOC)(CCCOC)CC1 [[^99m−Tc(N) (PNP5) (DBODC)^+]]', 3.94),
  ('CCOCCC[P]1(CCCOCC)CCN(CCOCC)CC[P](CCCOCC)(CCCOCC)[99Tc+]12(#[N])[S]C(N(CCOCC)CCOCC)=[S]2 [[^99m−Tc(N) (PNP6) (DBODC)^+]]', 1.24);

I'm hoping you can list Heart accumulation for every molecule here, please.
1. CCOCCN(CCOCC)C1=[S][99Tc+]2(#[N])([S]1)[P](CCCOC)(CCCOC)CCN(CCOC)CC[P]2(CCCOC)CCCOC [[^99m−Tc(N) (PNP3) (DBODC)^+]]
2. COCCC[P]1(CCCOC)CCN(CCOC)CC[P](CCCOC)(CCCOC)[99Tc+]12(#[N])[S]C(N(CCOC)CCOC)=[S]2 [[^99m−Tc(N) (PNP3) (DPODC)^+]]

OUTPUT:
1: 3.42; 2: 2.06

###

# Test Description: Biodistribution of the 99mTc(N) heterocomplexes in rats (organ uptake, heart accumulation, heart/lung and heart/liver ratios)
# Format: in vivo, female Sprague-Dawley rats
# Details: rats, 120 min
Assay Endpoint: Heart/lung ratio in biodistribution
Answers are plain numbers.

INSERT INTO measurements (compound, test_result) VALUES
  ('CCOCCC[P]1(CCCOCC)CCN(CCOCC)CC[P](CCCOCC)(CCCOCC)[99Tc+]12(#[N])[S]C(N(CCOCC)CCOCC)=[S]2 [[^99mTc(N) (PNP6) (DBODC)^+]]', 3.91),
  ('CCOCCN1CC[P](CCCOC)(CCCOC)[99Tc+]2(#[N])([S]C(N(CCOCC)CCOCC)=[S]2)[P](CCCOC)(CCCOC)CC1 [[^99mTc(N) (PNP5) (DBODC)^+]]', 13.24),
  ('CCOCCN1CC[P](CCCOC)(CCCOC)[99Tc+]2(#[N])([S]C(N(CCOCC)C(C)C)=[S]2)[P](CCCOC)(CCCOC)CC1 [[^99mTc(N) (PNP5) (ISOET)^+]]', 11.09),
  ('CCOCCN(CCOCC)C1=[S][99Tc+]2(#[N])([S]1)[P](CCCOC)(CCCOC)CCN(CCOC)CC[P]2(CCCOC)CCCOC [[^99m−Tc(N) (PNP3) (DBODC)^+]]', 11.10);

# ---- query compound ----
INPUT: Quick one: Heart/lung ratio in biodistribution of COCCC[P]1(CCCOC)CCN(CCOC)CC[P](CCCOC)(CCCOC)[99Tc+]12(#[N])[S]C(N(CCOC)CCOC)=[S]2 [[^99m−Tc(N) (PNP3) (DPODC)^+]] ?
OUTPUT: 12.25
